Tested system: human GluN1/GluN2B NMDA receptors (Homo sapiens, UniProt Q05586+Q13224)
Sequence (Q13224 27-1484, other chains not shown): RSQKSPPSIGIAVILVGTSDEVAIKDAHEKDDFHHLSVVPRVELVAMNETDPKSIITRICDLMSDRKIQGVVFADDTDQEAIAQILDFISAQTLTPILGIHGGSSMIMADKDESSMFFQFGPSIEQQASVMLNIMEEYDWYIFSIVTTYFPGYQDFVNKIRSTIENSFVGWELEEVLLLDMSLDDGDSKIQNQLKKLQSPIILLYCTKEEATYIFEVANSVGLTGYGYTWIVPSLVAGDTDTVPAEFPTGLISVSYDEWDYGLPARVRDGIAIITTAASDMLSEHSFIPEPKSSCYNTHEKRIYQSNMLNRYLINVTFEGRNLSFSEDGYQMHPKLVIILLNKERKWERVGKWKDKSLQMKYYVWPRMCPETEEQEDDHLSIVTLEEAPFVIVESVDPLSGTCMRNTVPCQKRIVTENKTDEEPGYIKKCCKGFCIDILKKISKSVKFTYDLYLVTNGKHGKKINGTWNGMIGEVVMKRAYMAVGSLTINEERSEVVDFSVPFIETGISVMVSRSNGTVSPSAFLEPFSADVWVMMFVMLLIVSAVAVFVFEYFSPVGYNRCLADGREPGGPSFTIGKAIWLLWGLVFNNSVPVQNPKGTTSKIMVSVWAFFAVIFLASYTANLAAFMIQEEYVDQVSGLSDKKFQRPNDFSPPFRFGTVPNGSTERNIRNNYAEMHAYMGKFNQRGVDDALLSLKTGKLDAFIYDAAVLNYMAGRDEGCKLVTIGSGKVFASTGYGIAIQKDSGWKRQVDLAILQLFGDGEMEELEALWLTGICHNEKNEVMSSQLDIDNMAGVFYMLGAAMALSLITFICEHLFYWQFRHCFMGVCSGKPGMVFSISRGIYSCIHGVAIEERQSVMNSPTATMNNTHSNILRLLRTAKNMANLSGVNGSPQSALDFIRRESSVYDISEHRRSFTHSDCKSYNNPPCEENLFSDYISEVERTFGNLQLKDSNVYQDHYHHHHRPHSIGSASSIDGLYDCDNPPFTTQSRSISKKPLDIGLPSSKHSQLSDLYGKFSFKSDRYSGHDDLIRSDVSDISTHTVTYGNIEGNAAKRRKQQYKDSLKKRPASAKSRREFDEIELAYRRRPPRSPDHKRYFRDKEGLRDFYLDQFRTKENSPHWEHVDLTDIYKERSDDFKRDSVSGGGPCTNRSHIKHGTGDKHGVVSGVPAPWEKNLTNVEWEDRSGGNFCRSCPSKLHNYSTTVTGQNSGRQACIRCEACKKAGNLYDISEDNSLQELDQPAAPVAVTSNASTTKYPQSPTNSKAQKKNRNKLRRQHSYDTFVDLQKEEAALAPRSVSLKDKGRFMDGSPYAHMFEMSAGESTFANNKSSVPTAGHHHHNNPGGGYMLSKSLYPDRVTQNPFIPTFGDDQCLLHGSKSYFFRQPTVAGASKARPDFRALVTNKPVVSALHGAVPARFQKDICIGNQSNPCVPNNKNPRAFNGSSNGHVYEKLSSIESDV
Test description: Cell-based calcium flux (FLIPR) assay on cloned human NR1/NR2B ion channels expressed in mammalian cells
Setup conditions: standard assay; human GluN1/GluN2B, calcium flux (FLIPR), glutamate ~EC80
Form field: IC50 (one value per entry).
Readout: IC50 (µM)

compound=Cc1cnc(OCc2cn(-c3ccc(F)c(C(F)F)c3)nn2)nc1 tested_system="human GluN1/GluN2B NMDA receptors (Homo sapiens, UniProt Q05586+Q13224)" numeric_value=0.001
compound=Fc1ccc(-n2cc(COc3ncc(Cl)cn3)nn2)cc1 tested_system="human GluN1/GluN2B NMDA receptors (Homo sapiens, UniProt Q05586+Q13224)" numeric_value=0.371
compound=Cc1cnc(OCc2cn(-c3cccc(F)c3)nn2)nc1 tested_system="human GluN1/GluN2B NMDA receptors (Homo sapiens, UniProt Q05586+Q13224)" numeric_value=0.205
compound=FC(F)Oc1cc(-n2cc(COc3cnccn3)nn2)ccc1Cl tested_system="human GluN1/GluN2B NMDA receptors (Homo sapiens, UniProt Q05586+Q13224)" numeric_value=0.456
compound=Cc1cnc(NCc2cn(-c3ccc(F)c(C(C)(F)F)c3)nn2)nc1C tested_system="human GluN1/GluN2B NMDA receptors (Homo sapiens, UniProt Q05586+Q13224)" numeric_value=0.05
compound=Cc1ccnc(OCc2cn(-c3cccc(C(F)F)c3)nn2)n1 tested_system="human GluN1/GluN2B NMDA receptors (Homo sapiens, UniProt Q05586+Q13224)" numeric_value=0.134
compound=COc1ncccc1OCc1cn(-c2ccc(Cl)c(OC(F)F)c2)nn1 tested_system="human GluN1/GluN2B NMDA receptors (Homo sapiens, UniProt Q05586+Q13224)" numeric_value=0.064
compound=Cc1nc(NCc2cn(-c3ccc(F)c(C(F)F)c3)nn2)ncc1Cl tested_system="human GluN1/GluN2B NMDA receptors (Homo sapiens, UniProt Q05586+Q13224)" numeric_value=0.011
compound=Fc1ccc(-n2cc(COc3ncccn3)nn2)cc1C(F)F tested_system="human GluN1/GluN2B NMDA receptors (Homo sapiens, UniProt Q05586+Q13224)" numeric_value=0.05
compound="CC(O)c1cnc(OCc2cn(-c3cccc(C(C)(F)F)c3)nn2)nc1 (racemic)" tested_system="human GluN1/GluN2B NMDA receptors (Homo sapiens, UniProt Q05586+Q13224)" numeric_value=0.037
compound=Cc1cnc(OCc2cn(-c3ccc(F)c(C(C)(F)F)c3)nn2)nc1 tested_system="human GluN1/GluN2B NMDA receptors (Homo sapiens, UniProt Q05586+Q13224)" numeric_value=0.004
compound=COCc1ccnc(OCc2cn(-c3cccc(OC(F)(F)F)c3)nn2)n1 tested_system="human GluN1/GluN2B NMDA receptors (Homo sapiens, UniProt Q05586+Q13224)" numeric_value=0.202
compound=CC(C)c1cnc(OCc2cn(-c3ccc(F)c(C(C)(F)F)c3)nn2)nc1 tested_system="human GluN1/GluN2B NMDA receptors (Homo sapiens, UniProt Q05586+Q13224)" numeric_value=0.044
compound=CCc1cnc(OCc2cn(-c3cccc(OC(F)(F)F)c3)nn2)nc1 tested_system="human GluN1/GluN2B NMDA receptors (Homo sapiens, UniProt Q05586+Q13224)" numeric_value=0.015
compound=FC(F)c1cc(-n2cc(CNc3ncc(Cl)cn3)nn2)ccc1Cl tested_system="human GluN1/GluN2B NMDA receptors (Homo sapiens, UniProt Q05586+Q13224)" numeric_value=0.131
compound=CCc1cnc(NCc2cn(-c3ccc(F)c(C(C)(F)F)c3)nn2)nc1 tested_system="human GluN1/GluN2B NMDA receptors (Homo sapiens, UniProt Q05586+Q13224)" numeric_value=0.128
compound=Fc1ccc(-n2cc(COc3ccccn3)nn2)cc1C(F)F tested_system="human GluN1/GluN2B NMDA receptors (Homo sapiens, UniProt Q05586+Q13224)" numeric_value=0.684
compound=CC(C)c1cc(-n2cc(COc3ncc(C(C)(C)O)cn3)nn2)ccc1F tested_system="human GluN1/GluN2B NMDA receptors (Homo sapiens, UniProt Q05586+Q13224)" numeric_value=0.029
compound=COc1cnc(OCc2cn(-c3ccc(C)cc3)nn2)nc1 tested_system="human GluN1/GluN2B NMDA receptors (Homo sapiens, UniProt Q05586+Q13224)" numeric_value=0.225
compound=CC(F)(F)c1cccc(-n2cc(COc3ncc(N4CC(F)C4)cn3)nn2)c1 tested_system="human GluN1/GluN2B NMDA receptors (Homo sapiens, UniProt Q05586+Q13224)" numeric_value=0.104
compound=Fc1ccc(-n2cc(COc3ncc(Cl)cn3)nn2)cc1OC(F)F tested_system="human GluN1/GluN2B NMDA receptors (Homo sapiens, UniProt Q05586+Q13224)" numeric_value=0.003
compound=Fc1ccc(-n2cc(COc3ncc(Cl)cn3)nn2)cc1C(F)F tested_system="human GluN1/GluN2B NMDA receptors (Homo sapiens, UniProt Q05586+Q13224)" numeric_value=0.003
compound=Cn1ccnc1NCc1cn(-c2ccc(F)c(C(F)F)c2)nn1 tested_system="human GluN1/GluN2B NMDA receptors (Homo sapiens, UniProt Q05586+Q13224)" numeric_value=3.65
compound=Fc1cnc(OCc2cn(-c3ccc(Cl)c(C(F)F)c3)nn2)nc1 tested_system="human GluN1/GluN2B NMDA receptors (Homo sapiens, UniProt Q05586+Q13224)" numeric_value=0.052
compound=CNc1ccnc(OCc2cn(-c3ccc(Cl)c(OC(F)F)c3)nn2)n1 tested_system="human GluN1/GluN2B NMDA receptors (Homo sapiens, UniProt Q05586+Q13224)" numeric_value=0.006
compound=CC(F)(F)c1cccc(-n2cc(COc3ncc(C(F)F)cn3)nn2)c1 tested_system="human GluN1/GluN2B NMDA receptors (Homo sapiens, UniProt Q05586+Q13224)" numeric_value=0.002
compound=Cc1cnc(OCc2cn(-c3ccc(Cl)c(OC(F)F)c3)nn2)nc1C tested_system="human GluN1/GluN2B NMDA receptors (Homo sapiens, UniProt Q05586+Q13224)" numeric_value=0.008
compound=Cc1ccccc1-n1cc(COc2ncc(F)cn2)nn1 tested_system="human GluN1/GluN2B NMDA receptors (Homo sapiens, UniProt Q05586+Q13224)" numeric_value=16.6
compound=Cc1nc(OCc2cn(-c3cccc(C(F)F)c3)nn2)ncc1F tested_system="human GluN1/GluN2B NMDA receptors (Homo sapiens, UniProt Q05586+Q13224)" numeric_value=0.042
compound=CC(F)(F)c1cccc(-n2cc(COc3nccc(N4CCCC4)n3)nn2)c1 tested_system="human GluN1/GluN2B NMDA receptors (Homo sapiens, UniProt Q05586+Q13224)" numeric_value=0.011
compound=COc1cnc(O[C@H](C)c2cn(-c3ccc(Cl)c(OC(F)F)c3)nn2)nc1 tested_system="human GluN1/GluN2B NMDA receptors (Homo sapiens, UniProt Q05586+Q13224)" numeric_value=0.01
compound=CC(F)(F)c1cccc(-n2cc(COc3ncc(Br)cn3)nn2)c1 tested_system="human GluN1/GluN2B NMDA receptors (Homo sapiens, UniProt Q05586+Q13224)" numeric_value=0.039
compound=Fc1ccc(-n2cc(COc3ncc(C(F)(F)F)cn3)nn2)cc1Br tested_system="human GluN1/GluN2B NMDA receptors (Homo sapiens, UniProt Q05586+Q13224)" numeric_value=0.005
compound=FC(F)c1cc(-n2cc(CNc3ncccn3)nn2)ccc1Cl tested_system="human GluN1/GluN2B NMDA receptors (Homo sapiens, UniProt Q05586+Q13224)" numeric_value=1.26
compound=CC(C)(O)c1cnc(OCc2cn(-c3cccc(C(F)F)c3)nn2)nc1 tested_system="human GluN1/GluN2B NMDA receptors (Homo sapiens, UniProt Q05586+Q13224)" numeric_value=0.173
compound=COc1cc(-n2cc(COc3ncccn3)nn2)ccc1Cl tested_system="human GluN1/GluN2B NMDA receptors (Homo sapiens, UniProt Q05586+Q13224)" numeric_value=0.699
compound=Fc1ccc(-n2cc(COc3ncc(C(F)(F)F)cn3)nn2)cc1OC(F)F tested_system="human GluN1/GluN2B NMDA receptors (Homo sapiens, UniProt Q05586+Q13224)" numeric_value=0.007
compound=Fc1ccc(-n2cc(COc3ccc(Cl)cn3)nn2)cc1C(F)F tested_system="human GluN1/GluN2B NMDA receptors (Homo sapiens, UniProt Q05586+Q13224)" numeric_value=0.056
